system_under_test: HLA-B*83:01
measurement_description: IEDB peptide-MHC binding, purified MHC/competitive/fluorescence; filed as Kd, often an IC50 or EC50 that approximates it; bounds were set here for any values at or beyond the usual limits of such assays
condition_details: source organism: human gammaherpesvirus 4
quantity_name: Kd (µM)
Quick note: give the figure in µM, leave out the unit.

WPTPKTHPV | 3.47

// next entry
**Query** For the sequence VPRPRFSAL , what Kd is on record?
**Result** 0.106

====

Kd listing for selected sequences.
system_under_test: HLA-A*01:01
measurement_description: IEDB peptide-MHC binding, purified MHC/direct/fluorescence; filed as Kd, often an IC50 or EC50 that approximates it; bounds were set here for any values at or beyond the usual limits of such assays
condition_details: source organism: West Nile virus

AHYEEDVNL | ≥ 20 µM

**Query** For the sequence LVKTESWIL , what Kd is on record?
**Result** ≥ 20 µM

====

system_under_test: HLA-A*23:01
measurement_description: IEDB peptide-MHC binding, purified MHC/competitive/radioactivity; filed as Kd, often an IC50 or EC50 that approximates it; bounds were set here for any values at or beyond the usual limits of such assays
condition_details: source organism: Mammarenavirus guanaritoense
quantity_name: Kd (µM)
Quick note: give the figure in µM, leave out the unit.

**Query** For the sequence CYSKSLRDLV , what Kd is on record?
**Result** 3.07

====

system_under_test: HLA-A*26:01
measurement_description: IEDB peptide-MHC binding, purified MHC/direct/fluorescence; filed as Kd, often an IC50 or EC50 that approximates it; bounds were set here for any values at or beyond the usual limits of such assays
condition_details: source organism: Vibrio cholerae
quantity_name: Kd (nM)
Quick note: give the figure in nM, leave out the unit.

**Query** For the sequence EGIEGRIAY , what Kd is on record?
**Result** 8.61

====

system_under_test: HLA-A*30:01
measurement_description: IEDB peptide-MHC binding, purified MHC/competitive/radioactivity; filed as Kd, often an IC50 or EC50 that approximates it; bounds were set here for any values at or beyond the usual limits of such assays
condition_details: source organism: Dengue virus 3 Martinique/1243/1999
quantity_name: Kd (µM)
Quick note: give the figure in µM, leave out the unit.

**Query** For the sequence ATFKIQPFL , what Kd is on record?
**Result** 0.361

====

system_under_test: HLA-B*44:02
measurement_description: IEDB peptide-MHC binding, purified MHC/competitive/fluorescence; filed as Kd, often an IC50 or EC50 that approximates it; bounds were set here for any values at or beyond the usual limits of such assays
condition_details: source organism: Escherichia coli 536
pKd: −log10 of the molar value.
quantity_name: pKd

**Query** For the sequence YQAENSTAE , what pKd is on record?
**Result** ≤ 5.30

====

system_under_test: HLA-C*06:02
measurement_description: IEDB peptide-MHC binding, purified MHC/direct/fluorescence; filed as Kd, often an IC50 or EC50 that approximates it; bounds were set here for any values at or beyond the usual limits of such assays
condition_details: source organism: Escherichia coli F11
pKd: −log10 of the molar value.
quantity_name: pKd

**Query** Write down the reported pKd of YTLNNGGAF , test system: HLA-C*06:02.
**Result** ≤ 4.70
